assayed_target: RSV F protein of subtype A (strain A2) on recombinant mKate-RSV (Respiratory syncytial virus subtype A …, UniProt P03420 26-574)
experiment_notes: cell-based or functional assay
This section presents binders with their documented Neut IC50 (µg/ml) subtype A values.
readout: Neut IC50 (µg/ml) subtype A (µg/mL)

[[record]]
binder = "ADI-14534 (antibody, V domains shown, IgG; also called Antibody Number 94) VH: EVQLVESGGGVVQPGRSLRLSCAVSGFTFSNFGMHWVRQAPGKGLEWVAAISYDGRKRFQADSVKGRFTISRDNLKNTLNLQMNSLKTEDTAVYYCAKSSRLLDWLYNMDFWGQGTTVTVSS VL: SYVLTQPPSVSVAPGKTARITCGGNILGSSSVHWFQQKAGQAPVLVIYYDSDRPSGIPERFSGSHSGDTATLTISRVEVGDEADYYCQVWDNSNSQGVFGGGTQLTVL"
display_unit = "µg/mL"
inequality_operator = ">"
reading = 10

[[record]]
binder = "ADI-14562 (antibody, V domains shown) VH: EVQLVESGPEVKGPGSSVKVSCEASAATFSNYAISWVRQAPGQGLEWMGGFVPMLGTRNYAQKFKGRVTLTADVSTHTLYLEIGSLRFEDTAVYYCATVAGLGTSYGRYLESWGQGTLVTVSS VL: DIRMTQSPSSVSASLGDRVTITCRASQDISTALAWYQQIPGKAPKLLIYEASSLQSGVPSRFRGSGSETDFALTISSLQPEDFATYYCQQAKSFPYTFGQGTKVEIK"
display_unit = "µg/mL"
inequality_operator = ">"
reading = 10

[[record]]
binder = "ADI-14542 (antibody, V domains shown) VH: QVQLVQSGAEVKKPGESLKISCKGSGYVFSSYWVAWVRQMPGKGLEWMGIIYPHDSDTRYSPAFQGQVTISADKSINTAYLQWSSLKASDTAMYYCTIILIPAPIRAPDGFDIWGQGTTVTVSS VL: NFMLTQPHSVSESPGKTVTISCTGSGGTIASNYVQWYQQRPGSVPTTVIYENNERPSGVPDRFSGSIDRSSNSASLTISGLKTEDEADYYCQSYDSSYHVVFGGGTKVTVL"
display_unit = "µg/mL"
inequality_operator = "="
reading = 0.008

[[record]]
binder = "ADI-14543 (antibody, V domains shown) VH: QVQLVQSGAEVKKPGSSVKVSCKASGDTFSSYAISWVRQAPGQGLEWMGGVLPMLGTANYAQRFRGRVTLTADGSTNTAYMEMSSLRLDDTAVYYCARVAGLGNSYGRYPDLWGQGTLVTVSS VL: DIVMTQSPSSLSASVGDRVTITCRASQGISSSLAWYQQKPGKAPELLIYAASSLHSGVPSRFRGSGSGTDFTLTISSVQPEDFATYYCQQANSFPYTFGQGTKLEIK"
display_unit = "µg/mL"
inequality_operator = ">"
reading = 10

[[record]]
binder = "ADI-14545 (antibody, V domains shown) VH: EVQLVESGGGLVKPGGSLRLSCAASGFTFSNAWMSWVRQAPGKGLEWVGRVKSKSKGGTTHYAEAVKGRFTISRDDSKNTLYLQMQSLKTEDTAVYYCTSHAYNSDWFVTTDYYYYMDVWGKGTTVTVSS VL: DIVLTQSPSSLSASVGDRVTFTCRASQSISNYLNWYQQKPGKAPKVLIYGASNLLSGVPSRFIGSGSGTDFTLTINSLQPEDFATYYCQQCYSAPITFGQGTRLEIK"
display_unit = "µg/mL"
inequality_operator = "="
reading = 0.036

[[record]]
binder = "ADI-14529 (antibody, V domains shown, IgG; also called Antibody Number 89) VH: EVQLVESGGGLVKPGGSLRLSCAASGFIFRNAWMSWVRQAPGKGLEWVGRIKRTSEGGSVDYATPVQGRFSISRDDSRNTLYLQMNSLETDDTAVYYCSTGPPYSYFDSSGYSVVDYWGQGTLVTVSS VL: QSVVTQPPSVSGTPGQRVTISCTGSSSNIGTPFDVHWYQQIPETAPKLIISGGFSRPSGVPDRFSGSQSGTSASLAISGLRSEDEGDYYCAAWDDSLSGPVFGGGTKLTVL"
display_unit = "µg/mL"
inequality_operator = "="
reading = 2.38

[[record]]
binder = "ADI-14560 (antibody, V domains shown, IgG; also called Antibody Number 120) VH: QVQLVQSGPELKKPGESLKISCKASGYSFTSFWIAWVRQMPGKGLEFLGIIYPGDADTRYSPSFQGQVTISADKSINTAYLQWNNLKASDTAMYYCARQTTMTPDAFDLWGQGTTVTVSS VL: EIVLTQSPATLSLSPGERATISCRASQSVSSYLAWYQQKPGQAPRLLIYEASDRATGTPARFSGSGSGTDFTLTISSLEPEDFAVYYCQQRSNWGVGTFGQGTKVEIK"
display_unit = "µg/mL"
inequality_operator = ">"
reading = 10

[[record]]
binder = "ADI-14548 (antibody, V domains shown) VH: EVQLVESGGGLVQPGGSLRLSCAASGFSFSTSWMSWVRQAPGKGLEWLANIKEDGSKKIYVDSVKGRFSISRDNAKNSLYLQMTSLRAEDTAVYYCARDVWGWELVGWLDPWGQGTLVTVSS VL: SYELTQPPSVSVAPGKTASITCGGSNIGSRSVHWYQQKPGQAPVLVVYEDHDRPSGIPERFSGSNSGNTATLTISRVEAGDEADYYCQVWDSSRDHVVFGGGTKVTVL"
display_unit = "µg/mL"
inequality_operator = "="
reading = 0.034

[[record]]
binder = "ADI-14527 (antibody, V domains shown, IgG; also called Antibody Number 87) VH: QVQLVQSGAELKRPGSSVKVSCKASGVYLTSVAVNWVRQVPGHGFEWMGGILTGFGKVRHAQAFENRATLTADASTNTAYLELSGLQAEDTAAYYCAIIDPQDCTAASCFWVNWLDPWGQGTLVTVSS VL: EIVLTQSPGTLTVSPGERATLSCRASQSVLSSHLAWYQQKPGQAPRLLIYAASSRATDVPDRFSGSGSGTDFTLTISRLEPQDFAVYYCQQYGSSPITFGQGTRLEIK"
display_unit = "µg/mL"
inequality_operator = ">"
reading = 10

[[record]]
binder = "ADI-14535 (antibody, V domains shown, IgG; also called Antibody Number 95) VH: QVQLQQWGPGLVKPSQTLSLTCSVSGASVKIGSNFWTWIRQRPGKGLEWIGAIHDTGTTYYNPSLEPQVIISTDTSQNQFSLRLTSVTAADTAVYYCARGRGYTYGWRYFDYWGQGTLVTVSS VL: SYVLTQPPSVSVSPGQTARITCSGDALPKQYAFWYQHKAGQAPVLVIKKDTERPSGIPERFSGSISGTTATLIISGVQAEDEADYYCQSSDSSGNVVLFGGGTQLTVL"
display_unit = "µg/mL"
inequality_operator = ">"
reading = 10

